Property: Cmax; scope: individual compounds
Assay: Mouse pharmacokinetics (oral)
Type: in vivo
Details: plasma, 50 mg/kg, ICR mouse, 5 mg/mL solution at 10 mL/kg
endpoint label: Cmax (ng/mL)

# given smiles, unit label, value measured
records = [
    ("CNC1CN(c2nc3ncc(Cl)cc3n3nnnc23)C1", "ng/mL", 10800),
    ("CNC1CN(c2nc3ncc(C#N)cc3n3cnnc23)C1", "ng/mL", 9760),
    ("Clc1cnc2nc(N3CCNCC3)c3nncn3c2c1", "ng/mL", 6570),
    ("CNC1CN(c2nc3ncc(Br)cc3n3nnnc23)C1", "ng/mL", 15400),
    ("CNC1CN(c2nc3ncc(Br)cc3n3cnnc23)C1", "ng/mL", 18900),
    ("Cc1nc2c3cc(Cl)cnc3nc(N3CCNCC3)n2n1", "ng/mL", 10100),
    ("CNC1CN(c2nc3ncc(Cl)cc3n3cnnc23)C1", "ng/mL", 12300),
    ("Cc1nc2c3cc(Cl)cnc3nc(N3CCN(C)CC3)n2n1", "ng/mL", 11700),
    ("CNC1CN(c2nc3ncc(I)cc3n3cnnc23)C1", "ng/mL", 10200),
    ("CN1CCN(c2nc3ncc(Cl)cc3n3cnnc23)CC1", "ng/mL", 14900),
    ("Brc1cnc2nc(N3CCNCC3)c3nncn3c2c1", "ng/mL", 8270),
]
